Origin of measurements: patent US20120214847A1

molecular target: glucocorticoid receptor (Homo sapiens, UniProt P04150); construct: endogenous in cells; assay: Ligand binding assay (GRBind), 3H-dexamethasone displacement in HeLa cell lysate; settings: 3H-DEX tracer
Reported pKi values are given for each entry in this list.
Give only the number. pKi is defined as minus log10 of concentration in molar units.

CC[C@]12Cc3cnn(-c4ccc(F)cc4)c3C=C1CC[C@@]2(O)CCc1ncccc1C(N)=O :: 8.01

# input compound: N#Cc1ccccc1CC[C@]1(O)CCC2=Cc3c(cnn3-c3cccnc3)C[C@@]21C1CC1 ; wanted: its pKi
8.87

# input compound: OC(C[C@]1(O)CCC2=Cc3c(cnn3-c3ccc(F)cc3)C[C@@]21C1CC1)c1ccc(F)cn1 (single isomer, unassigned) [Example 79b] ; wanted: its pKi
8.81

---

target: glucocorticoid receptor (Homo sapiens, UniProt P04150); construct: endogenous in cells; assay: Ligand binding assay (GRBind), 3H-dexamethasone displacement in HeLa cell lysate; details: 3H-DEX tracer
Reported log10 of Ki values are given for each entry in this list.
// do not treat as linear: log10 of Ki, unit nM

Answered cases to consult:
CC[C@]12Cc3cnn(-c4ccc(F)cc4)c3C=C1CC[C@@]2(O)CCc1nccc(OC)c1CC(N)=O :: 1.06
CC[C@]12Cc3cnn(-c4ccc(F)cc4)c3C=C1CC[C@@]2(O)CCc1nccc(OC)c1C(F)C(N)=O (stereo partly shown) :: 0.96
CC[C@]12Cc3cnn(-c4ccccc4)c3C=C1CC[C@@]2(O)CC(O)c1ccccn1 (single isomer, unassigned) [Example 82b] :: 0.74
CC[C@]12Cc3cnn(-c4ccc(F)cc4)c3C=C1CC[C@@]2(O)CCc1cc(F)ccn1 :: 0.24
CC[C@]12Cc3cnn(-c4ccccc4)c3C=C1CC[C@@]2(O)CCc1ncccc1S(=O)(=O)C(C)C :: 0.86
CC[C@]12Cc3cnn(-c4ccc(F)cc4)c3C=C1CC[C@@]2(O)CCc1cncc(F)c1 :: 0.02

# input compound: CC[C@]12Cc3cnn(-c4ccc(F)cc4)c3C=C1CC[C@@]2(O)CCc1ccccc1S(=O)(=O)C(C)C ; wanted: its log10 of Ki
0.39

# input compound: NC(=O)c1ccccc1CC[C@]1(O)CCC2=Cc3c(cnn3-c3ccccc3)C[C@@]21C1CC1 ; wanted: its log10 of Ki
0.36

# input compound: CC(C)(CO)NC(=O)c1cc(F)cnc1CC[C@]1(O)CCC2=Cc3c(cnn3-c3ccc(F)cc3)C[C@@]21C1CC1 ; wanted: its log10 of Ki
0.55

# input compound: CC[C@]12Cc3cnn(-c4ccc(F)cc4)c3C=C1CC[C@@]2(O)CC(O)c1ncccc1F (stereo partly shown) [Example 77] ; wanted: its log10 of Ki
0.64

# input compound: CC[C@]12Cc3cnn(-c4cccnc4)c3C=C1CC[C@@]2(O)CCc1ccc(F)cc1C#N ; wanted: its log10 of Ki
0.30

# input compound: CC[C@]12Cc3cnn(-c4ccc(F)cc4)c3C=C1CC[C@@]2(O)CCc1ccc(F)cc1C(N)=O ; wanted: its log10 of Ki
0.10

# input compound: O=C(NC1(CO)CC1)c1ccccc1CC[C@]1(O)CCC2=Cc3c(cnn3-c3ccc(F)cc3)C[C@@]21C1CC1 ; wanted: its log10 of Ki
0.30

---

Target: human GR (Homo sapiens)
Construct: naturally expresses the human GR; endogenous in cells
Sequence (P04150 1-777): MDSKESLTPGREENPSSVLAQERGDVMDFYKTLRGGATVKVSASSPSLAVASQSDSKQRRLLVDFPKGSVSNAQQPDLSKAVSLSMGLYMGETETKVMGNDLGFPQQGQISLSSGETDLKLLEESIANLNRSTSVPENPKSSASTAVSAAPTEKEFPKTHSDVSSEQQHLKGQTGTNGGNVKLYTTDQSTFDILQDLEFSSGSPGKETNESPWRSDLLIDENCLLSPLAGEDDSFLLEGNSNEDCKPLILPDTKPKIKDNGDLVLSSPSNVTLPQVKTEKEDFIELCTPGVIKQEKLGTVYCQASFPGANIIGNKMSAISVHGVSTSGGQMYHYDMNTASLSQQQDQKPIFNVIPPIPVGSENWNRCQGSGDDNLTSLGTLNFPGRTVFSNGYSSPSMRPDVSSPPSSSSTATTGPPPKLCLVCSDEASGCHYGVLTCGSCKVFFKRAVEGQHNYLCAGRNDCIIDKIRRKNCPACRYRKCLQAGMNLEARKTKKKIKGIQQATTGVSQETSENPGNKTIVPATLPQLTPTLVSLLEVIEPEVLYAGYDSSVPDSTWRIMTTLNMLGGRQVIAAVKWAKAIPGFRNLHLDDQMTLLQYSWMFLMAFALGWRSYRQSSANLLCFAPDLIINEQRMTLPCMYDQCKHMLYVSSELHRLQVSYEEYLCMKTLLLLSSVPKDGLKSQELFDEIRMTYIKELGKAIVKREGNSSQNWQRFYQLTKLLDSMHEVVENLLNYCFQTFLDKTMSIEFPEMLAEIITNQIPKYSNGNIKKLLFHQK
Test: Transrepression assay (GITAR), TNFα-β-lactamase reporter in U937 cells
Assay type: cell-based
Conditions: U937 cells; IP = inflection point
pEC50: −log10 of the molar value.
Returns 1 (yes) if the recorded pEC50 is greater than or equal to 7, and 0 (no) otherwise.

CC[C@]12Cc3cnn(-c4ccccc4)c3C=C1CC[C@@]2(O)CCc1ccccc1C(N)=O [Example 20] :: 1 (yes)
CC[C@]12Cc3cnn(-c4ccc(F)cc4)c3C=C1CC[C@@]2(O)CC(O)c1cc(C#N)ccn1 (stereo partly shown) [Example 72] :: 0 (no)
CC[C@]12Cc3cnn(-c4ccccc4)c3C=C1CC[C@@]2(O)CC(O)c1ccccn1 (single isomer, unassigned) [Example 67b] :: 0 (no)
CC[C@]12Cc3cnn(-c4ccc(F)cc4)c3C=C1CC[C@@]2(O)CCc1ncccc1C(N)=O [Example 52] :: 1 (yes)
CC[C@]12Cc3cnn(-c4ccccc4)c3C=C1CC[C@@]2(O)CC(O)c1ccccn1 (single isomer, unassigned) [Example 67a] :: 0 (no)

Is pEC50 at least 7? Consider CC[C@]12Cc3cnn(-c4cccnc4)c3C=C1CC[C@@]2(O)CCc1cccc(F)c1C(N)=O [Example 14]
1 (yes)

Is pEC50 at least 7? Consider CC(C)(CO)NC(=O)c1cc(F)cnc1CC[C@]1(O)CCC2=Cc3c(cnn3-c3ccc(F)cc3)C[C@@]21C1CC1 [Example 48]
1 (yes)

---

Biological target: human GR (Homo sapiens)
Construct: naturally expresses the human GR; endogenous in cells
Sequence (P04150 1-777): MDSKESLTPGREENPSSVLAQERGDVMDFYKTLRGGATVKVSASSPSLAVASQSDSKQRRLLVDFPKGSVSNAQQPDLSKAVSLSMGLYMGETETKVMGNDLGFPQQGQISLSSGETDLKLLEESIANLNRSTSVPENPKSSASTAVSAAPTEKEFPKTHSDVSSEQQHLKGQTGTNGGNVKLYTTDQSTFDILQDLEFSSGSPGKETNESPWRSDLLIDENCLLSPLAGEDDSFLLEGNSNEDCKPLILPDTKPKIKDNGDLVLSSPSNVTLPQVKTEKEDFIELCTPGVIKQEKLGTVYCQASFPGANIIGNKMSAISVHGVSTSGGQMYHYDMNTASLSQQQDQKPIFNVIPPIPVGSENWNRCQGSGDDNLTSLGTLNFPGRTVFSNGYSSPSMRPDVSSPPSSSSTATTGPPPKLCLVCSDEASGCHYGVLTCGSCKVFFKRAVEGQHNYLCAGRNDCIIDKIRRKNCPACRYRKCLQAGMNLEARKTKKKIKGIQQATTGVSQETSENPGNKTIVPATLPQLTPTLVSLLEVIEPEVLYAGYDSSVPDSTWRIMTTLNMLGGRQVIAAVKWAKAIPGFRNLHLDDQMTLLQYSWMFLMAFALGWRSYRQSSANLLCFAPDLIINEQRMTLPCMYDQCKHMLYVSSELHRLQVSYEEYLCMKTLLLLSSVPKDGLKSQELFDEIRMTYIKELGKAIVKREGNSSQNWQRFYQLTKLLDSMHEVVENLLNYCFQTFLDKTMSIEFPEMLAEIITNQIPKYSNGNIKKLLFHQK
Test: Transrepression assay (GITAR), TNFα-β-lactamase reporter in U937 cells
Assay type: cell-based
Details: U-937, U937 cells; activity repressed by 100 nM dexamethasone alone set as 100%
Response field label takes 1 (yes) when Emax is strictly below 80% and 0 (no) in all other cases.

OC(C[C@]1(O)CCC2=Cc3c(cnn3-c3ccc(F)cc3)C[C@@]21C1CC1)c1ccccn1 (stereo partly shown) [Example 78] :: 1 (yes)
CC[C@]12Cc3cnn(-c4cccnc4)c3C=C1CC[C@@]2(O)CCc1ccccc1C(N)=O [Example 13] :: 1 (yes)
NC(=O)c1ccccc1CC[C@]1(O)CCC2=Cc3c(cnn3-c3ccc(F)cc3)C[C@@]21C1CC1 [Example 23] :: 1 (yes)
N#Cc1c(F)cccc1CC[C@]1(O)CCC2=Cc3c(cnn3-c3ccccc3)C[C@@]21C1CC1 [Example 28] :: 0 (no)
CC[C@]12Cc3cnn(-c4ccc(F)cc4)c3C=C1CC[C@@]2(O)CCc1cccc(F)c1CC(N)=O [Example 60] :: 0 (no)
CC[C@]12Cc3cnn(-c4ccc(F)cc4)c3C=C1CC[C@@]2(O)CC(O)c1cc(C#N)ccn1 (stereo partly shown) [Example 72] :: 1 (yes)

Lab log: compare recorded Emax with 80%; is it strictly lower for COc1ccnc(CC[C@]2(O)CCC3=Cc4c(cnn4-c4ccc(F)cc4)C[C@@]32C2CC2)c1C(F)C(N)=O (stereo partly shown) [Example 66] ?
1 (yes)
